Tested on: SEM cells
protocol_text: cell viability relative to DMSO control; higher = less cytotoxic
test_settings: HPLM + 10% dialyzed FBS; 48 h; 46.1 µM
Each record is given label 1 if its reported cell viability is strictly below 80%. Records at or above 80% are given label 0.

Answered examples (3):
[
  {
    "molecule": "Cc1cc(SCc2sc(-c3ccc(C(F)(F)F)cc3)nc2C)ccc1OCC(=O)O",
    "target_or_system": "SEM cells",
    "group_label": "label 0"
  },
  {
    "molecule": "CNC(=O)c1ccc(N2C(=S)N(c3ccc(C#N)c(C(F)(F)F)c3)C(=O)C2(C)C)cc1F",
    "target_or_system": "SEM cells",
    "group_label": "label 0"
  },
  {
    "molecule": "C[N]1N=CC2=C1C=C(C(=C2)OC3=CC=C(NC(=O)\\C4=C\\C=C(\\C)N(C4=O)C5=CC=C(F)C=C5)C=C3F)C6=C[NH]N=C6",
    "target_or_system": "SEM cells",
    "group_label": "label 1"
  }
]

Ask: Is cell viability of C/C(=C\c1csc(C)n1)[C@@H]1C[C@@H]2O[C@@H]2CCC[C@H](C)[C@H](O)[C@@H](C)C(=O)C(C)(C)[C@@H](O)CC(=O)O1 strictly below 80%?
Reply: label 1

Ask: Try the molecule O=[S+]([O-])(CCSSCC[S+](=O)([O-])[O][Na])[O][Na]
Reply: label 0

Ask: Try the molecule Cn1cnc(-c2cc3nccc(Oc4ccc(NC(=S)NC(=O)Cc5ccccc5)cc4F)c3s2)c1
Reply: label 1

Ask: Try the molecule C[C@H](NC(=O)Cc1cc(F)cc(F)c1)C(=O)N[C@@H]1C(=O)N(C)c2ccccc2-c2ccccc21
Reply: label 1

Ask: Try the molecule CC(=O)OCC(=O)[C@@]12OC(C)(C)O[C@@H]1C[C@H]3[C@@H]4C[C@H](F)C/5=C/C(=O)/C=C\[C@]5(C)[C@@]4(F)[C@@H](O)C[C@]23C
Reply: label 1

Ask: Try the molecule C[C@H]1[C@H](O)O[C@@H]2O[C@@]3(C)CC[C@H]4[C@H](C)CC[C@@H]1[C@@]24OO3
Reply: label 1

Ask: Try the molecule O=C(c1ccc(/C=C/c2n[nH]c3ccccc23)cc1)N1CCNCC1
Reply: label 1

Ask: Try the molecule O=P1(N(CCCl)CCCl)NCCCO1 (configuration not stated)
Reply: label 1

Ask: Try the molecule CCNC(=O)Nc1ccc(-c2nc3c(c(N4CCOC[C@@H]4C)n2)CCN(C2COC2)C3)cc1
Reply: label 1

Ask: Try the molecule CN(c1nccc(=O)[nH]1)C1CCN(c2nc3ccccc3n2Cc2ccc(F)cc2)CC1
Reply: label 0

Ask: Try the molecule O=[S+]([O-])(F)Cc1ccccc1
Reply: label 0

Ask: Try the molecule NCCCCCC(=O)O
Reply: label 0
